target_entity: cAMP-dependent protein kinase type I-beta regulatory subunit (Homo sapiens) (UniProt P31321)
Sequence (P31321 whole entry): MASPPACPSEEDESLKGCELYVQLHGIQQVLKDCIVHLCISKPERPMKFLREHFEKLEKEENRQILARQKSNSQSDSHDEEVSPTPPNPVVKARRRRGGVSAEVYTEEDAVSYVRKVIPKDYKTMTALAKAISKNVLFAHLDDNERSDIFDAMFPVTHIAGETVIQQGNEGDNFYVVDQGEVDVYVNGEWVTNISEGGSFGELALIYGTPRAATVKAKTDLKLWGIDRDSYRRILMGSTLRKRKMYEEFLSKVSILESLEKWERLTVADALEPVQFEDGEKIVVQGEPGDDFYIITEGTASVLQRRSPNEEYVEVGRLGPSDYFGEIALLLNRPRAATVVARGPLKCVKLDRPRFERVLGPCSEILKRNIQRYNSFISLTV
procedure_summary: Binding affinity to recombinant human full length PKA-R1beta expressed in Escherichia coli BL21 DE3-RIL cells assessed as reduction in interaction with AKAP at 20 nM by fluorescence polarization analysis
The source made the active and inactive calls. The rule behind the calls is not given here.
measurement_label: Activity

[[record]]
molecular_string = "CC(C)C[C@H](NC(=O)[C@H](C)NC(=O)[C@]1(C)CCC/C=C/CCC[C@](C)(NC(=O)[C@H](CO)NC(=O)[C@H](C)NC(=O)[C@H](CC(C)C)NC(=O)[C@H](Cc2ccccc2)NC(=O)[C@H](CCCCN)NC(=O)[C@H](C)NC(=O)[C@H](CC(C)C)NC(=O)[C@H](CCCCN)NC(=O)[C@H](CCCCN)NC(=O)COCCOCCOCCN)C(=O)N[C@@H](C)C(=O)N[C@@H](CC(C)C)C(=O)N[C@@H](CCCCN)C(=O)N1)C(=O)N[C@@H](CCCCN)C(=O)O"
measurement_label = "Activity"
val = "inactive"

[[record]]
molecular_string = "CC(C)C[C@@H]1NC(=O)[C@H](C)NC(=O)[C@@](C)(NC(=O)[C@H](CO)NC(=O)[C@@H](NC(=O)[C@H](CC(C)C)NC(=O)[C@H](Cc2ccccc2)NC(=O)[C@H](CCCCN)NC(=O)[C@H](C)NC(=O)[C@H](CC(C)C)NC(=O)[C@H](CCCCN)NC(=O)[C@H](CCCCN)NC(=O)COCCOCCOCCN)C(C)C)CCC/C=C/CCC[C@@](C)(C(=O)N[C@@H](C)C(=O)N[C@@H](C)C(=O)N[C@@H](CCCCN)C(=O)O)NC(=O)[C@H](CCCCN)NC1=O"
measurement_label = "Activity"
val = "inactive"

[[record]]
molecular_string = "CC(C)C[C@H](NC(=O)[C@H](C)NC(=O)[C@H](CCCCN)NC(=O)COCCOCCOCCN)C(=O)N[C@@H](C)C(=O)N[C@@H](CCCCN)C(=O)N[C@@H](Cc1ccccc1)C(=O)N[C@@H](CC(C)C)C(=O)N[C@H](C(=O)N[C@@H](CO)C(=O)N[C@@]1(C)CCC/C=C/CCC[C@@](C)(C(=O)N[C@@H](C)C(=O)N[C@@H](CC(C)C)C(=O)N[C@@H](CCCCN)C(=O)O)NC(=O)[C@H](CCCCN)NC(=O)[C@H](CC(C)C)NC(=O)[C@H](C)NC1=O)C(C)C"
measurement_label = "Activity"
val = "inactive"


Each recorded value in this set is attributed to ChEMBL document CHEMBL4184287.
